Test: ATG_CMV_CIS: Attagene CIS-FACTORIAL HepG2 Assay for human CMV (Internal Marker) (AID 2282928);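 further: endpoint acts as a background internal control marker rather than a target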
Conditions: HepG2 CMV promoter reporter, transcription factor profiling; actives raise or lower the signal
The source made the active and inactive calls. How the source made its calls: active means hit-call score of the fitted dose curve at least 0.9, where 1 is the maximum; inactive means score below 0.9.
Outcomes: active, inactive

[[record]]
molecule = "OCC(O)CC(F)(F)C(F)(F)C(F)(F)C(F)(F)F (configuration not stated)"
group_label = "inactive"

[[record]]
molecule = "O=C(Cl)c1ccc(Cl)cc1Cl"
group_label = "inactive"

[[record]]
molecule = "CC(C)Nc1ccc(NC(C)C)c2c1C(=O)c1ccccc1C2=O"
group_label = "inactive"

[[record]]
molecule = "NC(O)(C(F)(F)F)C(F)(F)F"
group_label = "inactive"

[[record]]
molecule = "CC(C)CCCC(C)CCO (configuration not stated)"
group_label = "inactive"

[[record]]
molecule = "Cc1cc(C)c(O)c(C(C)(C)C)c1"
group_label = "active"

[[record]]
molecule = "C=CC(=O)OCC(F)(F)C(F)(F)C(F)(F)C(F)(F)C(F)(F)C(F)(F)C(F)(F)C(F)F"
group_label = "inactive"

[[record]]
molecule = "C=C(C)C(=O)OCC(F)(F)C(F)(F)C(F)(F)C(F)F"
group_label = "inactive"

[[record]]
molecule = "C[Si](C)O[Si](C)C"
group_label = "inactive"

[[record]]
molecule = "CCOCN(C(=O)CS(=O)(=O)O)c1c(C)cccc1CC"
group_label = "inactive"

[[record]]
molecule = "O=S(=O)(O)c1ccc(Cl)cc1"
group_label = "inactive"

[[record]]
molecule = "CCCCCCCCCCCCCC[P+](CCCC)(CCCC)CCCC"
group_label = "inactive"

[[record]]
molecule = "O=C(O)CCC(F)(F)C(F)(F)C(F)(F)C(F)(F)C(F)(F)C(F)(F)C(F)(F)F"
group_label = "inactive"

[[record]]
molecule = "FC(F)(F)C(F)(F)C(F)(F)C(F)(F)C(F)(F)C(F)(F)CC[Si](Cl)(Cl)Cl"
group_label = "inactive"

[[record]]
molecule = "CCc1ccc(C)nc1"
group_label = "inactive"

[[record]]
molecule = "N#Cc1ccccc1O"
group_label = "inactive"

[[record]]
molecule = "CCOC(OCC)OCC"
group_label = "inactive"

[[record]]
molecule = "O=S(=O)(OCC(F)(F)F)C(F)(F)C(F)(F)C(F)(F)C(F)(F)F"
group_label = "active"

[[record]]
molecule = "CCN(CC)c1ccc2c(c1)Oc1cc(N(CC)CC)ccc1C21OC(=O)c2ccccc21"
group_label = "inactive"

[[record]]
molecule = "OCC(F)(F)C(F)(F)C(F)(F)CO"
group_label = "inactive"

[[record]]
molecule = "CCOC(=O)CC(=O)C(F)(F)C(F)(F)F"
group_label = "inactive"

[[record]]
molecule = "CCCCCCCCCc1ccc(OCCO)cc1"
group_label = "active"

[[record]]
molecule = "CN(C(=O)C(F)(F)C(F)(F)C(F)(F)F)[Si](C)(C)C"
group_label = "inactive"

[[record]]
molecule = "CCC/C=C/CO"
group_label = "inactive"

[[record]]
molecule = "O=C(O)C(F)(F)C(F)(F)C(F)(F)C(F)(F)C(F)(F)C(F)(F)C(F)F"
group_label = "inactive"

[[record]]
molecule = "OCCC(O)CO (configuration not stated)"
group_label = "inactive"

[[record]]
molecule = "O=C(F)C1(F)C(F)(F)C(F)(F)C(F)(F)C(F)(F)C1(F)F"
group_label = "inactive"


---

Read-out: Tissue plasminogen activator (tPA), PLAT (gene 5327)
Experiment: BSK_BF4T_tPA: BioMAP Diversity Plus: BF4T Assay for Tissue plasminogen activator (tPA) Biomarker Activity (AID 2284272)
Conditions: primary human bronchial epithelial cells with fibroblasts
Activity calls are given as the source filed them. How the source made its calls: active means hit-call score of the fitted dose curve at least 0.9, where 1 is the maximum; inactive means score below 0.9.
reported.endpoint: outcome

[[record]]
structure = "O=S(=O)(O)CCC(F)(F)C(F)(F)C(F)(F)C(F)(F)C(F)(F)C(F)(F)C(F)(F)C(F)(F)F"
result = "inactive"

[[record]]
structure = "OCC(F)(F)C(F)(F)C(F)(F)C(F)(F)C(F)(F)C(F)(F)CO"
result = "inactive"

[[record]]
structure = "CO[Si](C)(CCC(F)(F)C(F)(F)C(F)(F)C(F)(F)C(F)(F)C(F)(F)F)OC"
result = "inactive"

[[record]]
structure = "O=C(O)C(F)(F)C(F)(F)C(F)(F)OC(F)(C(F)(F)F)C(F)(F)F"
result = "inactive"

[[record]]
structure = "NCC(F)(F)C(F)(F)C(F)(F)C(F)(F)C(F)(F)C(F)(F)F"
result = "inactive"

[[record]]
structure = "CNS(=O)(=O)C(F)(F)C(F)(F)C(F)(F)C(F)(F)C(F)(F)C(F)(F)C(F)(F)C(F)(F)F"
result = "inactive"

[[record]]
structure = "FC(F)(F)C(F)(F)C(F)(F)C(F)(F)C(F)(F)C(F)(F)C(F)(F)CCI"
result = "inactive"

[[record]]
structure = "C[Si](Cl)(Cl)CCC(F)(F)C(F)(F)C(F)(F)C(F)(F)C(F)(F)C(F)(F)F"
result = "inactive"

[[record]]
structure = "O=C(Cl)C(F)(F)C(F)(F)C(F)(F)C(F)(F)C(F)(F)C(F)(F)C(F)(F)F"
result = "inactive"

[[record]]
structure = "OCCCCC(F)(F)C(F)(F)C(F)(F)C(F)(F)F"
result = "inactive"

[[record]]
structure = "C=C(C)C(=O)OCC(F)(F)C(F)(F)C(F)(F)C(F)F"
result = "inactive"


---

Assay: ATG_TCF_b_cat_CIS: Attagene CIS-FACTORIAL HepG2 Assay for human T-Cell-Factor with beta-catenin (TCF/b-cat) (AID 2282965)
Conditions: HepG2 TCF/beta-catenin cis-reporter transcription, actives raise or lower the signal
Activity calls are given as the source filed them. Rule for the calls: active = hit-call score of the fitted dose curve at least 0.9, where 1 is the maximum; inactive = score below 0.9.
Outcomes: 1.0 (active), 0.0 (inactive)

[[record]]
molecule = "C=CC(=O)OCC(F)(F)C(F)(F)C(F)(F)C(F)(F)C(F)(F)C(F)(F)C(F)(F)C(F)F"
group_label = 1.0

[[record]]
molecule = "CCc1cc(Cc2cc(CC)c(N)c(CC)c2)cc(CC)c1N"
group_label = 1.0

[[record]]
molecule = "Cc1ccc([N+](=O)[O-])c(C)c1"
group_label = 0.0

[[record]]
molecule = "FC(F)(F)C(F)(F)C(F)(F)CC1CO1 (configuration not stated)"
group_label = 0.0

[[record]]
molecule = "O=c1[nH]cccc1O"
group_label = 0.0

[[record]]
molecule = "CCOC(=O)C1CC(=O)C(=C(O)C2CC2)C(=O)C1 (configuration not stated)"
group_label = 0.0

[[record]]
molecule = "OCC1CCCO1 (configuration not stated)"
group_label = 0.0

[[record]]
molecule = "COC(F)(C(F)F)C(F)(F)F (configuration not stated)"
group_label = 0.0

[[record]]
molecule = "FC(F)(F)C(F)(F)C(F)(F)C(F)(F)C(F)(F)C(F)(F)CC[Si](Cl)(Cl)Cl"
group_label = 0.0

[[record]]
molecule = "N#Cc1ccccc1O"
group_label = 0.0

[[record]]
molecule = "CC1=CCC2C(=O)OC(=O)C2C1 (configuration not stated)"
group_label = 0.0

[[record]]
molecule = "CCCCCCCCCCCCCCCCC"
group_label = 0.0

[[record]]
molecule = "CC(=O)CCC(C)C"
group_label = 0.0

[[record]]
molecule = "O=C(O)CCC(F)(F)C(F)(F)C(F)(F)C(F)(F)C(F)(F)C(F)(F)C(F)(F)F"
group_label = 1.0

[[record]]
molecule = "O=C(c1ccccc1)c1ccc(Cl)cc1"
group_label = 0.0

[[record]]
molecule = "CN(N=O)C(=O)N[C@@H]1[C@@H](O)[C@H](O)[C@@H](CO)O[C@@H]1O"
group_label = 0.0

[[record]]
molecule = "CC(C)(C)c1cc(CCC(=O)NCCCCCCNC(=O)CCc2cc(C(C)(C)C)c(O)c(C(C)(C)C)c2)cc(C(C)(C)C)c1O"
group_label = 0.0

[[record]]
molecule = "O=C1OC(=O)c2ccc3c4c(ccc1c24)C(=O)OC3=O"
group_label = 0.0

[[record]]
molecule = "NC(=O)C(F)(F)C(F)(F)C(F)(F)F"
group_label = 0.0

[[record]]
molecule = "Cc1ccc(O)cn1"
group_label = 0.0

[[record]]
molecule = "CC(C)OC=O"
group_label = 0.0

[[record]]
molecule = "CCCCCCCC/C=C\\CCCCCCCC(=O)OCC(O)CO (configuration not stated)"
group_label = 0.0

[[record]]
molecule = "OCCCCC(F)(F)C(F)(F)C(F)(F)C(F)(F)F"
group_label = 0.0

[[record]]
molecule = "CCOC(=O)CC(=O)C(F)(F)C(F)(F)F"
group_label = 0.0

[[record]]
molecule = "O=C=Nc1cccc2c(N=C=O)cccc12"
group_label = 0.0

[[record]]
molecule = "CCN(CC)c1ccc(C=O)cc1"
group_label = 0.0

[[record]]
molecule = "C[Si](C)O[Si](C)C"
group_label = 0.0

